# TARGET ENTITY: CB2 receptor (Homo sapiens)
# EXPERIMENTAL DETAILS: cAMP formation inhibition experiment through a cannabinoid receptor (forskolin stimulation), CB2
# Format: cell-based
# Design: expressed in transfected cells; host or cells: CHO cells
pIC50: −log10 of the molar value.
RECORDED ENDPOINT: pIC50

• CCCCn1c2c(cc(C(=O)NC3(CC(=O)O)CCCCC3)c1=O)CCCCCC2 = > 8.70
• CCc1c(C)cc(C(=O)N[C@H](C(=O)NC(CO)CO)C(C)(C)C)c(=O)n1CC1CCCCC1 = > 8.70

Prompt: Assign pIC50 to the following record: COC(=O)C(C)(C)NC(=O)c1cc2c(n(CC3CCCCC3)c1=O)CCCCCC2
Response: > 8.70

###

# TARGET ENTITY: CB2 receptor (Homo sapiens, UniProt P34972)
# Sequence (P34972 whole entry): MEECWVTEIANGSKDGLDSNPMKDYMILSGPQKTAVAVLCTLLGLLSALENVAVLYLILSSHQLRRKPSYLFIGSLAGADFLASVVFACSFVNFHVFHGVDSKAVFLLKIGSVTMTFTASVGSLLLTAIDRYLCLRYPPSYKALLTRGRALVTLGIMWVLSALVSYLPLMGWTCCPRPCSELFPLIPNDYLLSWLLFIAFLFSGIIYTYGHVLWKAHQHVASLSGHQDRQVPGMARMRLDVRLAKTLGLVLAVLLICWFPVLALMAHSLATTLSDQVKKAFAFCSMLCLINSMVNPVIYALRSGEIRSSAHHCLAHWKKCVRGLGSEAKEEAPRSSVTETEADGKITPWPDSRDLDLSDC
# EXPERIMENTAL DETAILS: cAMP formation inhibition experiment through a cannabinoid receptor (forskolin stimulation), CB2
# Type: cell-based
# Set-up: expressed in transfected cells; host or cells: CHO cells
Listed next: entries and their corresponding IC50.

Some compounds with recorded IC50:
* CCc1c(C)cc(C(=O)Nc2nc(CC(=O)O)ns2)c(=O)n1CC1CCCCC1 | < 2 nM
* CC(C)(NC(=O)c1cc2c(n(CC3CCCCC3)c1=O)CCCCCC2)C(=O)Nc1ccc(NS(C)(=O)=O)cc1 | < 2 nM
* CC(C)C[C@@H](CC(=O)O)NC(=O)c1cc2c(n(Cc3ccc(F)cc3)c1=O)CCCCCC2 | < 2 nM

Prompt: Assign IC50 to the following record: CC(C)CCn1c2c(cc(C(=O)NC(C(=O)O)c3cccs3)c1=O)CCCCCC2 (stereo not drawn)
Response: < 2 nM

Prompt: Assign IC50 to the following record: O=C(NC1(C(=O)O)CCCCCCC1)c1cc2c(n(CC3CCCCC3)c1=O)CCCCCC2
Response: < 2 nM

Prompt: Assign IC50 to the following record: CC[C@@H](C)[C@H](NC(=O)c1cc(C)c(C)n(CC2CCCCC2)c1=O)C(=O)OC
Response: < 2 nM
